# target: soluble TSHR protein (ELISA coat) (human, UniProt P16473 22-260, limits assumed)
# test.name: ELISA, plate coated with soluble TSHR, antibody at 300 nM, anti-human IgG Fc-HRP;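 also: TSHR coated at 2 µg/ml, bound antibody revealed by goat anti-human IgG Fc HRP, color developed with TMB and stopped with H2SO4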

{"binder": "TSHB-7 (antibody, V domains shown) VH: EVQLVQSGAEVKKPGESLKISCKASGYSLKDNWIGWVRQKPGKGLEWMGIIYPGDSDTRYSPSFQGQVTISADKSISTAYLQWSSLKASDTAIYYCVGLDWNYNPLRYWGQGTLVTVSS VL: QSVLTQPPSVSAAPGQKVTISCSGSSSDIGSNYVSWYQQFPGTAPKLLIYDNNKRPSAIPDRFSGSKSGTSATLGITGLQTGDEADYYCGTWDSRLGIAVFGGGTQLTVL", "measurement.unit": "OD 450", "ELISA (OD 450) at 300 nM": 0.555}
{"binder": "TSHB-21 (antibody, V domains shown) VH: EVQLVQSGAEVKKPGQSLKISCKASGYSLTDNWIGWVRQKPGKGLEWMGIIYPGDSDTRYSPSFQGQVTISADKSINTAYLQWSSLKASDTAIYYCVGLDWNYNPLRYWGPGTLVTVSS VL: QSVLTQPPSVSAAPGQKVTISCSGSSSDIGSNYVSWYQQLPGTAPKLLIYDNNKRPSGIPDRFSGSKSGTSATLGITGLQTGDEADYYCATWDSRLGIAVFGGGTQLTVL", "measurement.unit": "OD 450", "ELISA (OD 450) at 300 nM": 0.552}
{"binder": "TSHB-19 (antibody, V domains shown) VH: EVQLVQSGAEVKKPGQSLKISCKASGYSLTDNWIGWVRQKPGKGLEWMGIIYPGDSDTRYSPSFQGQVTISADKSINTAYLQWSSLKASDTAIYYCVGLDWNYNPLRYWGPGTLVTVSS VL: QSVLTQPPSVSAAPGQKVTISCSGSSSDIGSNWVSWYQQLPGTAPKLLIYDNNKRPSGIPDRFSGSKSGTSATLGITGLQTGDEADYYCGTWDSRLGIAVFGGGTQLTVL", "measurement.unit": "OD 450", "ELISA (OD 450) at 300 nM": 0.547}
{"binder": "parental TSHR-binding antibody (antibody, V domains shown, it has a human Fc (captured on anti-human Fc, detected with anti-human IgG Fc); also called parental antibody; parental anti-TSHR antibody) VH: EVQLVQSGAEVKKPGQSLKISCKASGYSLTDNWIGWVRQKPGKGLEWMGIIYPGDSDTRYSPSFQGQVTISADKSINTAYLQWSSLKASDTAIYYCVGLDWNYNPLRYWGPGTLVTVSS VL: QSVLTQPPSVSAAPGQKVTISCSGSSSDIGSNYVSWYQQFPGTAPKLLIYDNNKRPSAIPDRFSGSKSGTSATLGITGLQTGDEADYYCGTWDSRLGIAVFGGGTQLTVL", "measurement.unit": "OD 450", "ELISA (OD 450) at 300 nM": 0.461}
{"binder": "TSHB-10 (antibody, V domains shown) VH: EVQLVQSGAEVKKPGESLKISCKASGYSLTDNWIGWVRQKPGKGLEWMGIIYPGDSDTRYSPSFKGQVTISADKSISTAYLQWSSLKASDTAIYYCVGLDWNYNPLRYWGQGTLVTVSS VL: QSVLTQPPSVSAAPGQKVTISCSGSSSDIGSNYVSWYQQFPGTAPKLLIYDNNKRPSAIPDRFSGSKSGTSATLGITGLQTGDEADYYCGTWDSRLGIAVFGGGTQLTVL", "measurement.unit": "OD 450", "ELISA (OD 450) at 300 nM": 0.557}
{"binder": "TSHB-23 (antibody, V domains shown) VH: EVQLVQSGAEVKKPGESLKISCKASGYSLTDNWIGWVRQKPGKGLEWMGIIYPGDSDTRYSPSFQGQVTISADKSISTAYLQWSSLKASDTAIYYCVGLDWNYNPLRYWGQGTLVTVSS VL: QSVLTQPPSVSAAPGQKVTISCSGSSSDIGSNYVSWYQQLPGTAPKLLIYDNNKRPSGIPDRFSGSKSGTSATLGITGLQTGDEADYYCGTWDSRLGIAVFGGGTQLTVL", "measurement.unit": "OD 450", "ELISA (OD 450) at 300 nM": 0.538}
{"binder": "TSHB-18 (antibody, V domains shown) VH: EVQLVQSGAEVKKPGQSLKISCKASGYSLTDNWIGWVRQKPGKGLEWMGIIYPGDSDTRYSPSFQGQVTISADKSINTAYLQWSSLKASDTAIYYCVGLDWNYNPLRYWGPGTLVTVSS VL: QSVLTQPPSVSAAPGQKVTISCSGSSTDIGSNYVSWYQQLPGTAPKLLIYDNNKRPSGIPDRFSGSKSGTSATLGITGLQTGDEADYYCGTWDSRLGIAVFGGGTQLTVL", "measurement.unit": "OD 450", "ELISA (OD 450) at 300 nM": 0.55}
{"binder": "TSHB-6 (antibody, V domains shown) VH: EVQLVQSGAEVKKPGESLKISCKASGYSLNDNWIGWVRQKPGKGLEWMGIIYPGDSDTRYSPSFQGQVTISADKSISTAYLQWSSLKASDTAIYYCVGLDWNYNPLRYWGQGTLVTVSS VL: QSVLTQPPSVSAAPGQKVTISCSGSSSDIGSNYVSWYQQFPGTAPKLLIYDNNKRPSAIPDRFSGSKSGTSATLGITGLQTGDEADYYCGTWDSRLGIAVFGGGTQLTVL", "measurement.unit": "OD 450", "ELISA (OD 450) at 300 nM": 0.548}
{"binder": "TSHB-16 (antibody, V domains shown) VH: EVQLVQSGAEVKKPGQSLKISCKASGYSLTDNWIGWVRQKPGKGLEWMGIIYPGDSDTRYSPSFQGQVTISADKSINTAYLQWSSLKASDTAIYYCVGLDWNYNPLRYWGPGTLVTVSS VL: QSVLTQPPSVSAAPGQKVTISCSGSSSDIGANYVSWYQQLPGTAPKLLIYDNNKRPSGIPDRFSGSKSGTSATLGITGLQTGDEADYYCGTWDSRLGIAVFGGGTQLTVL", "measurement.unit": "OD 450", "ELISA (OD 450) at 300 nM": 0.566}

Recorded values, source patent US20250388688A1.
